# TEST_SUMMARY: Photosensitizing ability of the compound in DMF at pH 5.2 assessed as singlet oxygen quantum yield in presence of HCl
# Type: functional
Provide the reported Activity of each item.

Would you kindly share the measured Activity for CCN(CC)Cc1ccc(C2=C(I)C(c3ccc(OC)cc3)=[N+]3C2=Nc2c(-c4ccc(CN(CC)CC)cc4)cc(-c4ccc(OC)cc4)n2[B-]3(F)F)cc1 ?
0.65

The following compounds each have a reported value; give each one's Activity.
1. CCN(CC)Cc1ccc(C2=C(Br)C(c3ccc(OC)cc3)=[N+]3C2=Nc2c(-c4ccc(CN(CC)CC)cc4)c(Br)c(-c4ccc(OC)cc4)n2[B-]3(F)F)cc1
2. CCN(CC)Cc1ccc(C2=C(I)C(c3ccc(OC)cc3)=[N+]3C2=Nc2c(-c4ccccc4)c(I)c(-c4ccc(OC)cc4)n2[B-]3(F)F)cc1
3. CCN(CC)Cc1ccc(C2=C(I)C(c3ccc(OC)cc3)=[N+]3C2=Nc2c(-c4ccc(CN(CC)CC)cc4)c(I)c(-c4ccc(OC)cc4)n2[B-]3(F)F)cc1
4. CCN(CC)Cc1ccc(C2=C(I)C(c3ccc(OC)cc3)=[N+]3C2=Nc2c(-c4ccccc4)c4c(n2[B-]3(F)F)-c2ccc(OC)cc2CC4)cc1
5. COc1ccc(C2=[N+]3C(=Nc4c(-c5ccccc5)cc(-c5ccc(OC)cc5)n4[B-]3(F)F)C(c3ccccc3)=C2I)cc1

1: 0.65; 2: 0.74; 3: 0.75; 4: 0.51; 5: 0.51
